- target.desc: Human immunodeficiency virus type 1 protease (Human immunodeficiency virus 1, UniProt Q72874)
endpoint: log10(Ki) (log10 of the value in nM)

CC(C)CN([C@@H](CCCCNC(=O)OCC1c2ccccc2-c2ccccc21)C(=O)O)S(=O)(=O)c1cccc2ccccc12 1.74
Cc1ccc(S(=O)(=O)N(CC(C)C)[C@@H](CCCCNC(=O)OC2c3ccccc3-c3ccccc32)C(=O)NN)cc1 2.40
Cc1ccc(S(=O)(=O)N(Cc2ccccc2)[C@@H](CCCCNC(=O)OCC2c3ccccc3-c3ccccc32)C(=O)O)cc1 1.29
CCC(CC)CN([C@@H](CCCCNC(=O)OCC1c2ccccc2-c2ccccc21)C(=O)O)S(=O)(=O)c1ccc(C)cc1 1.18
Cc1ccc(S(=O)(=O)N(CC2CC2)[C@@H](CCCCNC(=O)OCC2c3ccccc3-c3ccccc32)C(=O)O)cc1 0.59
Cc1ccc(S(=O)(=O)N(CCCC[C@H](NC(=O)OCC2c3ccccc3-c3ccccc32)C(=O)O)CC(C)C)cc1 3.30

Source listed as ChEMBL document CHEMBL1142025.
